Cited source: ChEMBL document CHEMBL4325914

- System: A-431;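 further: antiproliferative activity measured with an MTT assay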
- assay text: cells
- Type: functional, cell-based
- condition parameters: Homo sapiens, A-431, 72 h
- Description: Antiproliferative activity against human A431 cells after 72 hrs by MTT assay
recorded metric: IC50 (nM)

Example compounds with recorded IC50:
{"smiles notation": "C#Cc1cccc(Nc2ncnc3cc(OC)c(OCCCN4CCNCCNCC4)cc23)c1", "IC50 [nM]": 2230}
{"smiles notation": "COc1cc2ncnc(Nc3cccc(Cl)c3)c2cc1OCCCN1CCNCCNCC1", "IC50 [nM]": 1120}
{"smiles notation": "COc1cc2ncnc(Nc3cccc(C(F)(F)F)c3)c2cc1OCCCN1CCNCCNCCNCC1", "IC50 [nM]": 1950}

I: COc1cc2ncnc(Nc3ccc(F)c(Cl)c3)c2cc1OCCCN1CCNCCNCC1
II: COc1cc2ncnc(Nc3cccc(Br)c3)c2cc1OCCCN1CCNCCNCC1
# input Compare I and II by numeric IC50 and name the larger one. Please indicate the selected item by its label.
# output II
